target: GABA-A receptor; anion channel; test: Displacement of [3H]-diazepam from GABA-A benzodiazepine receptor of rat cerebral cortex
reported-endpoint: pKi
Numbers only, as −log10 of the molar value.

Some entries whose results are on file:
[
  {
    "molecule": "Cc1cc(-n2[nH]c3c(cnc4ccccc43)c2=O)cs1",
    "pKi": 9.50
  },
  {
    "molecule": "Cc1ccc(-n2[nH]c3c(cnc4ccccc43)c2=O)s1",
    "pKi": 9.49
  }
]

We now examine a further molecule.
Requested read-out: pKi. Entry: COC(=O)c1cc2c(cn1)[nH]c1ccccc12 [BETA-CCM]
8.83

Value source: ChEMBL document CHEMBL1123687
